PROTOCOL_SUMMARY: Solubility of DPV (Form I) in various solvents
Format: physicochemical
STUDY_CONDITIONS: water; read-out: solubility of dapivirine in water
PROPERTY: Solubility

For Cc1cc(C)c(Nc2ccnc(Nc3ccc(C#N)cc3)n2)c(C)c1 , what is its reported Solubility?
< 1 µg/mL
